Test: Inhibition of c-terminal GFP-tagged human ABCG2 expressed in MDCK2 cells assessed as enhancement of SN-38-induced cytotoxicity incubated for 72 hrs by MTT assay
Endpoint label: pEC50
Keep in mind that pEC50 stands for -log10 of concentration in molar terms.

Asked: Reported pEC50 for N#Cc1ccc(Nc2nc(-c3ccccc3)nc3ccccc23)cc1 : what is it?
Given back: 7.39

###

Test: Inhibition of c-terminal GFP-tagged human ABCG2 expressed in MDCK2 cells assessed as enhancement of Hoechst 33342-induced cytotoxicity incubated for 72 hrs by MTT assay
Endpoint label: EC50
Quick note: unit goes after the number.

Asked: Reported EC50 for N#Cc1ccc(Nc2nc(-c3ccccc3)nc3ccccc23)cc1 : what is it?
Given back: 53 nM

###

Biological target: Broad substrate specificity ATP-binding cassette transporter ABCG2 (Homo sapiens)
Sequence (Q9UNQ0 whole entry): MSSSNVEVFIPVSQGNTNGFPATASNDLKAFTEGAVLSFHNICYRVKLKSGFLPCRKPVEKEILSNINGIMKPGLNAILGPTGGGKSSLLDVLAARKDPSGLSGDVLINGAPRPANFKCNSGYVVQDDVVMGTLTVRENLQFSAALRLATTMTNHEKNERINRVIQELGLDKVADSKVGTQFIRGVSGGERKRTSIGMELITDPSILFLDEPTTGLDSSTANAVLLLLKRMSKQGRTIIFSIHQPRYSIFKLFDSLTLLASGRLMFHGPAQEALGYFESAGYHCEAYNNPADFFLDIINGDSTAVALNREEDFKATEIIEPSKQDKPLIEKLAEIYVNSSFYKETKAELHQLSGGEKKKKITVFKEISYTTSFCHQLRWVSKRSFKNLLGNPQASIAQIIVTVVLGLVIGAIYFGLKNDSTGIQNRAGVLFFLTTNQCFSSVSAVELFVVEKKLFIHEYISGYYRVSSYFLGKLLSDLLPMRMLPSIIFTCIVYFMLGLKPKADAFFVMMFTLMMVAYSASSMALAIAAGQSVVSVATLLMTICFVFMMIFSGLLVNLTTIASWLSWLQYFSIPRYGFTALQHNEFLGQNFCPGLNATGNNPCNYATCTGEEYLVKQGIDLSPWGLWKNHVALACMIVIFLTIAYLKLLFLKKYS
Experiment: Inhibition of c-terminal GFP-tagged human ABCG2 expressed in MDCK2 cells assessed as enhancement of SN-38-induced cytotoxicity incubated for 72 hrs by MTT assay
Endpoint label: pEC50
Keep in mind that pEC50 stands for -log10 of concentration in molar terms.

Asked: Reported pEC50 for O=[N+]([O-])c1cc(Nc2nc(-c3ccccc3)nc3ccccc23)ccc1O : what is it?
Given back: 6.92

###

Target: UniProtKB Q9UNQ0
Assay: Inhibition of c-terminal GFP-tagged human ABCG2 expressed in MDCK2 cells assessed as enhancement of Hoechst 33342-induced cytotoxicity incubated for 72 hrs by MTT assay
Endpoint label: pEC50
Keep in mind that pEC50 stands for -log10 of concentration in molar terms.

Asked: Reported pEC50 for O=[N+]([O-])c1cc(Nc2nc(-c3ccccc3)nc3ccccc23)ccc1O : what is it?
Given back: 6.89
